// data source = patent US5866577A

Reported pIC50 for target or system thrombin (Bos taurus, UniProt P00735), by entry.
# pIC50 = -log10(concentration in molar units)

Form field pIC50 for item Cl.Cl.N=C(N)c1ccc2[nH]c(CC(C(=O)O)c3ccc(O[C@H]4CCNC4)cc3)cc2c1 (stereo partly drawn) [Inventive Example 68, Dihydrochloride] on thrombin (Bos taurus, UniProt P00735): 3.72

Next:
// pIC50 (thrombin (Bos taurus, UniProt P00735)) for Cl.Cl.N=C(N)c1ccc2sc(CC(C(=O)O)c3ccc(O[C@H]4CCN(C(=N)C5CC5)C4)cc3)cc2c1 (stereo partly drawn) [Inventive Example 95, Dihydrochloride] = 4.59
